Molecular target: human GnRH receptor (Homo sapiens, UniProt P30968)
Sequence (P30968 1-328): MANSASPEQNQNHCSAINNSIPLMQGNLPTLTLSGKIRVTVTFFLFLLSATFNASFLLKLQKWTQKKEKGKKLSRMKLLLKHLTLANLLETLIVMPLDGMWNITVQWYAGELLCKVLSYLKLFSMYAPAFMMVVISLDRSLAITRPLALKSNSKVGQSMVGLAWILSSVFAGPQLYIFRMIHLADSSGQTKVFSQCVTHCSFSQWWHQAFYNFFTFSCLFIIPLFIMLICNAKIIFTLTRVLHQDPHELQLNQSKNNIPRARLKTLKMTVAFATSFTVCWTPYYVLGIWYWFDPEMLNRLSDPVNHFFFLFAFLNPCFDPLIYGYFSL
reported property: IC50 (nM)
Write down the numeric answer in nM and omit the unit.

Given the entry `CCNC(=O)Nc1ccc(-c2nc3n(Cc4c(F)cccc4F)cc(C(=O)OCC)c(=O)n3c2CN(C)Cc2ccccc2)cc1` , report its measured IC50. 0.5
